# Tested on: SK-CO-1 (Colorectal Carcinoma);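 further: after 72 h of two-drug dosing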
# measurement.protocol: Bliss excess, mean over the matrix (fraction); higher = more synergy
property.measured: Bliss excess
Respond with the number and no other words.

COc1cccc(OCCCN)c1-c1cc(Nc2cnc(C#N)cn2)n[nH]1 [Prexasertib] + C=CCn1c(=O)c2cnc(Nc3ccc(N4CCN(C)CC4)cc3)nc2n1-c1cccc(C(C)(C)O)n1 [AZD1775] (first compound max 1 µM, partner max 1 µM); 0.0582
CS(=O)(=O)CCNCc1ccc(-c2ccc3ncnc(Nc4ccc(OCc5cccc(F)c5)c(Cl)c4)c3c2)o1 [Lapatinib] + C[C@@H](Oc1cc(-c2cnn(C3CCNCC3)c2)cnc1N)c1c(Cl)ccc(F)c1Cl [Crizotinib] (first compound max 10 µM, 7x7, partner max 10 µM); -0.0721
COc1cccc(OCCCN)c1-c1cc(Nc2cnc(C#N)cn2)n[nH]1 [Prexasertib] + Cc1cc2ncnn2cc1Nc1ncc2c(n1)n(C1CCOCC1)c(=O)n2C [AZD7648] (first compound max 1 µM, 7x7, partner max 10 µM); -0.009
NC1(C(=O)N[C@@H](CCO)c2ccc(Cl)cc2)CCN(c2ncnc3[nH]ccc23)CC1 [Capivasertib] + CC(C)n1c(=O)n(C)c2cnc3cc(F)c(-c4ccc(OCCCN5CCCCC5)nc4)cc3c21 [AZD1390] (first compound max 10 µM, 7x7, partner max 0.3 µM); -0.0173
COc1nnc2ccc(N3CCC(c4ccc(OCCN5CCN(C)C(=O)[C@H]5C)cc4)CC3)nn12 [AZD5153] + C=CCn1c(=O)c2cnc(Nc3ccc(N4CCN(C)CC4)cc3)nc2n1-c1cccc(C(C)(C)O)n1 [AZD1775] (first compound max 1 µM, partner max 1 µM); -0.0741

[ask] Give SK-CO-1 (Colorectal Carcinoma) Bliss excess for Cc1c2c(nn1C)CSCc1cc(n(C)n1)CSc1cc(c3ccccc3c1)OCCCc1c(C(=O)O)n(C)c3c-2c(Cl)ccc13 [AZD5991] + CS(=O)(=O)CCNCc1ccc(-c2ccc3ncnc(Nc4ccc(OCc5cccc(F)c5)c(Cl)c4)c3c2)o1 [Lapatinib] (first compound max 1 µM, 7x7, partner max 10 µM)
[reply] 0.0034

[ask] Give SK-CO-1 (Colorectal Carcinoma) Bliss excess for C[C@@H]1COCCN1c1cc(C2([S@](C)(=N)=O)CC2)nc(-c2ccnc3[nH]ccc23)n1 [AZD6738] + O=C(c1cc(Cc2n[nH]c(=O)c3ccccc23)ccc1F)N1CCN(C(=O)C2CC2)CC1 [Olaparib] (first compound max 10 µM, 7x7, partner max 10 µM)
[reply] 0.013

[ask] Give SK-CO-1 (Colorectal Carcinoma) Bliss excess for Cc1c2c(nn1C)CSCc1cc(n(C)n1)CSc1cc(c3ccccc3c1)OCCCc1c(C(=O)O)n(C)c3c-2c(Cl)ccc13 [AZD5991] + CC1(C)CCC(CN2CCN(c3ccc(C(=O)NS(=O)(=O)c4ccc(NCC5CCOCC5)c([N+](=O)[O-])c4)c(Oc4cnc5[nH]ccc5c4)c3)CC2)=C(c2ccc(Cl)cc2)C1 [Venetoclax] (first compound max 1 µM, 7x7, partner max 1 µM)
[reply] -0.0378

----------
# Test system: NCI-H3118 (Head and Neck Carcinoma)
# measurement.protocol: combination Emax (second highest fraction inhibited in the dose matrix, 72 h); higher = more inhibition; extreme values may be limits of the assay
property.measured: combination Emax
Respond with the number and no other words.

Here are 8 compounds together with their reported answers.
COc1nnc2ccc(N3CCC(c4ccc(OCCN5CCN(C)C(=O)[C@H]5C)cc4)CC3)nn12 [AZD5153] + CC1(C)CCC(CN2CCN(c3ccc(C(=O)NS(=O)(=O)c4ccc(NCC5CCOCC5)c([N+](=O)[O-])c4)c(Oc4cnc5[nH]ccc5c4)c3)CC2)=C(c2ccc(Cl)cc2)C1 [Venetoclax] (first compound max 1 µM, 7x7, partner max 1 µM); 0.568
COc1nnc2ccc(N3CCC(c4ccc(OCCN5CCN(C)C(=O)[C@H]5C)cc4)CC3)nn12 [AZD5153] + C[C@@H]1COCCN1C2=NC(=NC(=C2)C3(CC3)[S@](=N)(=O)C)C4=C5C=CNC5=NC=C4 [AZD6738] (first compound max 1 µM, 7x7, partner max 10 µM); 0.61
C[C@@H](c1ccc2nccn2c1)n1nnc2ncc(-c3cnn(C)c3)nc21 [Savolitinib] + Cc1c2c(nn1C)CSCc1cc(n(C)n1)CSc1cc(c3ccccc3c1)OCCCc1c(C(=O)O)n(C)c3c-2c(Cl)ccc13 [AZD5991] (first compound max 1 µM, 7x7, partner max 1 µM); 0.225
COc1nnc2ccc(N3CCC(c4ccc(OCCN5CCN(C)C(=O)[C@H]5C)cc4)CC3)nn12 [AZD5153] + CCN(CCO)CCCOc1ccc2c(Nc3cc(CC(=O)Nc4cccc(F)c4)[nH]n3)ncnc2c1 [AZD2811] (first compound max 1 µM, 7x7, partner max 1 µM); 0.55
COc1cc2ncnc(Nc3ccc(F)c(Cl)c3)c2cc1OCCCN1CCOCC1 [Gefitinib] + CC(C)n1c(=O)n(C)c2cnc3cc(F)c(-c4ccc(OCCCN5CCCCC5)nc4)cc3c21 [AZD1390] (first compound max 10 µM, 7x7, partner max 0.3 µM); 0.518
Cc1c2c(nn1C)CSCc1cc(n(C)n1)CSc1cc(c3ccccc3c1)OCCCc1c(C(=O)O)n(C)c3c-2c(Cl)ccc13 [AZD5991] + C[C@@H](Nc1cc(F)cc(F)c1)c1cc(C(=O)N(C)C)cc2c(=O)cc(N3CCOCC3)oc12 [AZD8186] (first compound max 1 µM, 7x7, partner max 3 µM); 0.33
CN(CCO)CC[C@H](CSc1ccccc1)Nc1ccc(S(=O)(=O)NC(=O)c2ccc(N3CCC([C@@H](O)c4ccccc4-c4ccc(Cl)cc4)CC3)cc2)cc1S(=O)(=O)C(F)(F)F [AZD4320] + C[C@@H](Nc1cc(F)cc(F)c1)c1cc(C(=O)N(C)C)cc2c(=O)cc(N3CCOCC3)oc12 [AZD8186] (first compound max 1 µM, 7x7, partner max 3 µM); 0.39
NC1(C(=O)N[C@@H](CCO)c2ccc(Cl)cc2)CCN(c2ncnc3[nH]ccc23)CC1 [Capivasertib] + CC(C)n1c(=O)n(C)c2cnc3cc(F)c(-c4ccc(OCCCN5CCCCC5)nc4)cc3c21 [AZD1390] (first compound max 10 µM, 7x7, partner max 0.3 µM); 0.247

[ask] Which combination Emax value belongs to Cc1c2c(nn1C)CSCc1cc(n(C)n1)CSc1cc(c3ccccc3c1)OCCCc1c(C(=O)O)n(C)c3c-2c(Cl)ccc13 [AZD5991] + CCN(CCO)CCCOc1ccc2c(Nc3cc(CC(=O)Nc4cccc(F)c4)[nH]n3)ncnc2c1 [AZD2811] (first compound max 1 µM, 7x7, partner max 1 µM) ?
[reply] 0.625

[ask] Which combination Emax value belongs to COc1cccc(OCCCN)c1-c1cc(Nc2cnc(C#N)cn2)n[nH]1 [Prexasertib] + O=C(c1cc(Cc2n[nH]c(=O)c3ccccc23)ccc1F)N1CCN(C(=O)C2CC2)CC1 [Olaparib] (first compound max 1 µM, 7x7, partner max 10 µM) ?
[reply] 0.837

[ask] Which combination Emax value belongs to CC1(C)CCC(CN2CCN(c3ccc(C(=O)NS(=O)(=O)c4ccc(NCC5CCOCC5)c([N+](=O)[O-])c4)c(Oc4cnc5[nH]ccc5c4)c3)CC2)=C(c2ccc(Cl)cc2)C1 [Venetoclax] + C[C@@H]1COCCN1C2=NC(=NC(=C2)C3(CC3)[S@](=N)(=O)C)C4=C5C=CNC5=NC=C4 [AZD6738] (first compound max 1 µM, 7x7, partner max 10 µM) ?
[reply] 0.568

[ask] Which combination Emax value belongs to N#Cc1cnc(Nc2cc(NC[C@H]3CNCCO3)c(C(F)(F)F)cn2)cn1 [SRA737] + O=c1[nH]cc(F)c(=O)[nH]1 [5-Fluorouracil] (first compound max 10 µM, 7x7, partner max 20 µM) ?
[reply] 0.575

[ask] Which combination Emax value belongs to CN(CCO)CC[C@H](CSc1ccccc1)Nc1ccc(S(=O)(=O)NC(=O)c2ccc(N3CCC([C@@H](O)c4ccccc4-c4ccc(Cl)cc4)CC3)cc2)cc1S(=O)(=O)C(F)(F)F [AZD4320] + Nc1ccn([C@@H]2O[C@H](CO)[C@@H](O)C2(F)F)c(=O)n1 [Gemcitabine] (first compound max 1 µM, 7x7, partner max 0.3 µM) ?
[reply] 0.752

[ask] Which combination Emax value belongs to CN(C)CCCOc1ccc(-c2ccc3ncc4c(c3c2)n(C2CCOCC2)c(=O)n4C)cn1 [AZD0156] + C=CCn1c(=O)c2cnc(Nc3ccc(N4CCN(C)CC4)cc3)nc2n1-c1cccc(C(C)(C)O)n1 [AZD1775] (first compound max 1 µM, partner max 1 µM) ?
[reply] 0.842
